Test: In vivo brain exposure (plasma and brain AUC)
Conditions: male, mouse, mice, IP, 5 mg/kg, read-out: % BBB (brain exposure, plasma and brain AUC ratio)
experimental readout: Kp
Reply briefly: the number, and no unit.

Asked: Any idea what Kp was measured for COc1cc(C(=O)N2CC(F)(F)C[C@H]2C(=O)N2CCC[C@H]2C#N)cc(OC)c1OCc1ccccc1 ?
Given back: 0.21

====

Target: human prolyl oligopeptidase (Homo sapiens)
Sequence (P48147 1-710): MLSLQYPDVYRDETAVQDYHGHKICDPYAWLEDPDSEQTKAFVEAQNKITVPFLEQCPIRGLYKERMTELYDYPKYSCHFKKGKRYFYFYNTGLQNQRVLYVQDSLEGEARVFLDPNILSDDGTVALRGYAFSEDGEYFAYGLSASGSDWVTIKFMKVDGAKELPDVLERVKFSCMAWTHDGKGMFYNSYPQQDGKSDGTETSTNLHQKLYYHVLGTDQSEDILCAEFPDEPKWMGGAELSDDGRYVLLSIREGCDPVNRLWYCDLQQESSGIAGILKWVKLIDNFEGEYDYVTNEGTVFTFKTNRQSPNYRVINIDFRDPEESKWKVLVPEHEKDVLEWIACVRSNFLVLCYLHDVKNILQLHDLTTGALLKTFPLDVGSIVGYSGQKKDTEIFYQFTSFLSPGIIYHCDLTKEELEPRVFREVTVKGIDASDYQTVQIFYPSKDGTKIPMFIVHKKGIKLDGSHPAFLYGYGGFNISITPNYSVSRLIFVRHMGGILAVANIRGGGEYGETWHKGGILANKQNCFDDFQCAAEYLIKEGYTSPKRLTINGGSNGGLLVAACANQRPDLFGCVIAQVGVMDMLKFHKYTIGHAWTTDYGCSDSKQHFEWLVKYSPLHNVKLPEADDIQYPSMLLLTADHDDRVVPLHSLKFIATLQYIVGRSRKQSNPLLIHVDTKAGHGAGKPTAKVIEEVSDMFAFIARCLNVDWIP
experimental readout: IC50 (nM)
# value in nM; strip the unit string

Asked: Any idea what IC50 was measured for N#C[C@@H]1CCCN1C(=O)[C@@H]1CC(F)(F)CN1C(=O)c1ccc(OCc2ccccc2)c(F)c1 ?
Given back: 365
